Biological target: KATP channels (Homo sapiens, UniProt O60706+Q14654)
Construct: TE671 human medulloblastoma cells were obtained from ATCC
Sequence (O60706 1-1549 isoform O60706-2): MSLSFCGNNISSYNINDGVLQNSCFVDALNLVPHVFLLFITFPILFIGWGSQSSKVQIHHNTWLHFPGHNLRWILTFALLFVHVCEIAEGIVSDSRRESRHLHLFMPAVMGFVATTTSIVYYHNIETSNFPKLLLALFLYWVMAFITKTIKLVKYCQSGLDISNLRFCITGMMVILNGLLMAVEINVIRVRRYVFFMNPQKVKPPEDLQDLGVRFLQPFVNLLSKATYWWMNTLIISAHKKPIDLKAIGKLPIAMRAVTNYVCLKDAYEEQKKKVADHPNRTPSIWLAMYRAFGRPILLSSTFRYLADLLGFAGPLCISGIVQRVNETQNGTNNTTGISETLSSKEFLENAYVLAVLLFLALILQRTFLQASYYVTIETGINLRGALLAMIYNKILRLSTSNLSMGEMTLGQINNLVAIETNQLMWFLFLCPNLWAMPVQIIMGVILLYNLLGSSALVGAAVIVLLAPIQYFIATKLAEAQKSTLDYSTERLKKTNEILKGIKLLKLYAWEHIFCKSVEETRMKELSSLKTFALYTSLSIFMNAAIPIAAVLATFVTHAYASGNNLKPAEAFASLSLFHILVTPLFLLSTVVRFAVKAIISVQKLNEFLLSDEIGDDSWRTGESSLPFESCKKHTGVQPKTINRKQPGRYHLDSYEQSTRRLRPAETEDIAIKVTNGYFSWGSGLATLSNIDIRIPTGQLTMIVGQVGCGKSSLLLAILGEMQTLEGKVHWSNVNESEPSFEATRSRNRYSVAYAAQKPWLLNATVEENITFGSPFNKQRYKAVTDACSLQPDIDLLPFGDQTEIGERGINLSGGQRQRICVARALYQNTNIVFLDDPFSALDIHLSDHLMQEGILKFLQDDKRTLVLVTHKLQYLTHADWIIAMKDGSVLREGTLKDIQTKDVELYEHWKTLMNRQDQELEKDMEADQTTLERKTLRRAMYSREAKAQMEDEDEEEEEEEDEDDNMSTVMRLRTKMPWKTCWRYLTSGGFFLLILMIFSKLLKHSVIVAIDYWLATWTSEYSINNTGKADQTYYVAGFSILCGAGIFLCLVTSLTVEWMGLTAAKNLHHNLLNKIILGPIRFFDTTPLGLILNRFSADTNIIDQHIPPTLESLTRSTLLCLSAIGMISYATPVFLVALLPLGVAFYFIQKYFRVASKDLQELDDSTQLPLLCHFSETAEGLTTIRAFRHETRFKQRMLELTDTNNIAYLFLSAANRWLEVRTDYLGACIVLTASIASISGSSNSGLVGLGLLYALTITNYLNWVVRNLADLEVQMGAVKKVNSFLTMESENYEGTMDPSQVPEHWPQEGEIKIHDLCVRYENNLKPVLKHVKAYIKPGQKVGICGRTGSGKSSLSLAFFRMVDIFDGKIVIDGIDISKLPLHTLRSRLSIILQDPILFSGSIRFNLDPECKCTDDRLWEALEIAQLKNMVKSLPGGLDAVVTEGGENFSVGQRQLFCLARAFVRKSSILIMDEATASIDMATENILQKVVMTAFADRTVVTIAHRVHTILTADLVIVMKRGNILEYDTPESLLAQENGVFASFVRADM
Sequence (Q14654 whole entry): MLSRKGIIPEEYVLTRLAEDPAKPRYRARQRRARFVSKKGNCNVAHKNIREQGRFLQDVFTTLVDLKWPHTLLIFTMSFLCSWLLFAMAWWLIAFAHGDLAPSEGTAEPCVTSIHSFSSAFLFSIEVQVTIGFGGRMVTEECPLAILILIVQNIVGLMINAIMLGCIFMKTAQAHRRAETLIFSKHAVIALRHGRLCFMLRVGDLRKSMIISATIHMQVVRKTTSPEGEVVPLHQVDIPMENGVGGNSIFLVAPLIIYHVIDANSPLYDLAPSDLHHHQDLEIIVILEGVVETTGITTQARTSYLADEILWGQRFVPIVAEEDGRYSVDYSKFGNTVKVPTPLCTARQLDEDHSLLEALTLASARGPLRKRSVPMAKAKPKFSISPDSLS
Assay: Potassium Channel Assay (FLIPR membrane potential, TE671 cells)
Settings: TE671 human medulloblastoma cells, Membrane Potential Assay Dye, room temperature, hyperpolarization from KATP channel opening
pEC50: −log10 of the molar value.
measurementKind: pEC50

molecule | measurementTarget | pEC50
CC1(C)Oc2ccc(C#N)cc2[C@@H](Oc2cc(N)nc3ccccc23)[C@@H]1O (racemic) [Compound 8] | KATP channels (Homo sapiens, UniProt O60706+Q14654) | 5.43
CCOc1ccc2sc(N[C@@H]3c4cc(C#N)ccc4OC(C)(C)[C@H]3O)nc2c1 (racemic) [Compound 4] | KATP channels (Homo sapiens, UniProt O60706+Q14654) | 5.59
CC1(C)Oc2ccc(S(=O)(=O)c3ccccc3)cc2[C@@H](Nc2noc3ccc(Cl)cc23)[C@@H]1O [Compound 74] | KATP channels (Homo sapiens, UniProt O60706+Q14654) | 5.86

1. CC1(C)C=C(n2ccnc2-c2ccc(Cl)cc2)c2cc(C#N)ccc2O1 [Compound 54]
2. CC1(C)Oc2ccc(C#N)cc2[C@@H](N2CCN(c3ccc(F)cc3)CC2)[C@@H]1O (racemic) [Compound 48]
Hi team, can someone confirm which has the larger pEC50: 1 or 2 ? Thanks. To answer, give the label that identifies your chosen option.
1
(1: 5.74, 2: 5.20)

I. CC1(C)Oc2ccncc2[C@@H](Nc2nc3cc(Cl)ccc3s2)[C@@H]1O (racemic) [Compound 106]
II. CC1(C)Oc2ccc(C#N)cc2[C@@H](Oc2ccn(-c3ccc(Cl)cc3)n2)[C@@H]1O (racemic) [Compound 55]
Just tell me: smaller pEC50 value, I or II ? To answer, give the label that identifies your chosen option.
I
(I: 4.71, II: 5.05)

a. CC1(C)Oc2ccc(C#N)cc2[C@@H](n2c(=O)ccn2-c2ccccc2)[C@@H]1O (racemic) [Compound 62]
b. CC1(C)Oc2ccc(S(=O)(=O)c3cccc(F)c3)cc2[C@@H](Nc2noc3ccc(Cl)cc23)[C@@H]1O [Compound 103]
Hi team, can someone confirm which has the larger pEC50: a or b ? Thanks. To answer, give the label that identifies your chosen option.
b

----------
Molecular target: KATP channels (Homo sapiens, UniProt O60706+Q14654)
Construct: TE671 human medulloblastoma cells were obtained from ATCC; host or cells: TE671 human medulloblastoma cells
Assay: Potassium Channel Assay (FLIPR membrane potential, TE671 cells)
Assay type: cell-based
Conditions: TE671 human medulloblastoma cells, Membrane Potential Assay Dye, room temperature, hyperpolarization from KATP channel opening
measurementKind: EC50 (µM)

Examples with answers:
compound | measurementKind | reported
CC1(C)Oc2ccc(C#N)cc2[C@@H](N2CC3(CCCCC3)CC2=O)[C@@H]1O | EC50 | 21.4
CC1(C)Oc2ccc(C#N)cc2[C@@H](n2cncc2-c2ccc(Cl)cc2)[C@@H]1O (racemic) | EC50 | 7.45
CC1(C)Oc2cc(Cl)c(Cl)cc2[C@@H](Nc2noc3ccc(Cl)cc23)[C@@H]1O | EC50 | 24.8

1. CC1(C)Oc2ccc(C#N)cc2[C@@H](Sc2nc3cc(Cl)ccc3[nH]2)C1O (stereo in doubt)
2. CC1(C)Oc2ccc(Cl)cc2[C@@H](N2C(=O)CCN2c2ccccc2)[C@@H]1O (racemic)
3. CC1(C)C=C(Nc2nc(=O)c3ccccc3[nH]2)c2cc(C#N)ccc2O1
Order by EC50, ascending. Response field: labels, in requested order.
2, 1, 3

a. CC1(C)Oc2ccc(S(=O)(=O)N3CCCCC3)cc2[C@@H](n2oc3cc(Cl)ccc3c2=O)[C@@H]1O
b. CC1(C)Oc2ccc(C#N)cc2[C@@H](Nc2noc3ccc(Cl)cc23)[C@@H]1O
Just tell me: smaller EC50 value, a or b ? To answer, give the label that identifies your chosen option.
b
(b: 0.61 µM, a: 1.08 µM)

P. CC1(C)Oc2ccc(C#N)cc2[C@@H](NS(=O)(=O)c2cccc(Cl)c2)[C@@H]1O
Q. CC1(C)Oc2ccc(C#N)cc2[C@@H](Oc2ccc(-c3ccccc3)nn2)[C@@H]1O (racemic)
R. CC1(C)Oc2ccc(C#N)cc2[C@@H](n2nc(N)c3ccccc32)[C@@H]1O
S. CC1(C)Oc2cc(Cl)c(Cl)cc2[C@@H](n2oc3cc(Cl)ccc3c2=O)[C@@H]1O
Place the items in sequence of falling EC50. Response field: labels, in requested order.
R, S, Q, P
